tested on: MS2 coat protein; assay: apparent Kd, MS2 coat protein; higher = weaker binding; RNA-MaP array; conditions: ligand present: flavin mononucleotide; designed as: ON switch for flavin mononucleotide
Assign class by apparent Kd: not lower than 30 nM means criterion met; lower than 30 nM means criterion not met.

QUERY: Is apparent Kd at least 30 nM? Consider AAGGAACAUGAGGAUCACCCAUGUGCUUGCCAGCAAGGAUAUGGUUGUGACAUCUAUAUGCCAGAAGGUGCCGGAC
RESULT: criterion met

----------
test system: MS2 coat protein; experiment: apparent Kd, MS2 coat protein; higher = weaker binding; RNA-MaP array; theophylline 2 mM where present; conditions: designed as: ON switch for theophylline; no ligand
Readings of apparent Kd for the listed sequences
I only need the number, in nM, no unit after it.

>>> recorded_measurement("UCACAUGAGGAUCACCCAUGUACAGGCGAUACCAGCCGUACAUUGGGCCCUUGGCAGCGCACCGAGACCUUUAUAAGCACCUCGG")
29.5
>>> recorded_measurement("AUCGCACCUGGUGAUACCAGCGUUUGCUCGUGACAUGAGGAUCACCCAUGUGGCCAGUGAUGCCCUUGGCAGCAUGGUCGGUGCA")
230
>>> recorded_measurement("AAUCUGUCGGGUGAUACCAGCCUCGGCACAUCUCGUGCCGAACAUGAGGAUCACCCAUGUGGCCCUUGGCAGCACAUGACAAAUC")
381

Item AUCGUACCUGAUGAUACCAGCAAUUGCUCGUAACAUGAGGAUCACCCAUGUGACCAGUGAUGCCCUUGGCAGCAUGGUCGGUGCA was tested on MS2 coat protein; the reported apparent Kd is 172

Item UUAAGAGGAUAUCAAAUUUGAUUUUGUGAUACCAGAAUAAUUUUAUUCCCUUGGCAGCAUGACAUGAGGAUCACCCAUGUGUCUU was tested on MS2 coat protein; the reported apparent Kd is 37

Item AUCGUACCUGAUGAUACCAGCAAUUGCUCGUGACAUGAGGAUCACCCAUGUGACCAGUGAUGCCCUUGGCAGCAUGGUCGGUGCA was tested on MS2 coat protein; the reported apparent Kd is 97.1

Item UUCUACAUGAGGAUCACCCAUGUGGGUGAUACCAGCACUUUUUGGUGCCCUUGGCAGCACAUGAGAAUGCCGUAAAAUCGGCGAU was tested on MS2 coat protein; the reported apparent Kd is 334

Item AACAGGGCUUCCACGAAGCCCUAAGGUGAUACCAGCACAUGUAAGUGCCCUUGGCAGCACGGUACAUGAGGAUCACCCAUGUAGA was tested on MS2 coat protein; the reported apparent Kd is 50.3

Item AUCGUACCUAGUGAUACCAGCAAGUGAUCAUAACAUGAGGAUCACCCAUGUAAUCAGUGAUGCCCUUGGCAGCAUAAUCGUUACA was tested on MS2 coat protein; the reported apparent Kd is 193

Item UAAAACAUGAGGAUCACCCAUGUAAAUGAUACCAGAGUGAUGAUCCUCCCUUGGCAGCAUAACGCUGAUUGGAAACAAUCAGCGA was tested on MS2 coat protein; the reported apparent Kd is 130

Item ACUUUGUCGGGUGAUACCAGCCUCGGCAAAUCUCGUGCCGAACAUGAGGAUCACCCAUGUGGCCCUUGGCAGCACAUGACAACUC was tested on MS2 coat protein; the reported apparent Kd is 442

Item ACAUGAGGAUCACCCAUGUCUGCCACUGAUACCAGCGGAUGCCAACGCCCUUGGCAGCAGAACAUGAGGAUCACCCAUGUAGGCA was tested on MS2 coat protein; the reported apparent Kd is 319

Item UCGUGUAUAACGGAUACCAGUGAGAAGGAUACAUGAGGAUCACCCAUGUGAGUUGAUCCACACCCUUGGCAGCUGUAUAUAUCUA was tested on MS2 coat protein; the reported apparent Kd is 194

Item AAGGUGAUCCGUGAUACCAGCUCAACAUGAGGAUCACCCAUGUAAGCCUGGAAACAGGCGAGCCCUUGGCAGCACGGUAAUAAUA was tested on MS2 coat protein; the reported apparent Kd is 11.9

Item UAUAAAAUAACAGAUACCAGCGUGUUAUAAAACAUGAGGAUCACCCAUGUAGUGAUCAAGCGCCCUUGGCAGCUGGUAUUUUAUG was tested on MS2 coat protein; the reported apparent Kd is 79.3

Item AUUUAUGGUCGUGAUACCAGACAUACAUGAGGAUCACCCAUGUGAAAUAACAUAAUUUAGGUCCCUUGGCAGCACUUUUUAAUUA was tested on MS2 coat protein; the reported apparent Kd is 53.8

Item ACUCGGUGUUUGUUGCUCCGAGUUUAUGAUACCAGUUAGUUUUAUGGCCCUUGGCAGCAUAGGACAUGAGGAUCACCCAUGUGUU was tested on MS2 coat protein; the reported apparent Kd is 31.7

Item AAUAACAUGAGGAUCACCCAUGUAAAAGAUACCAGAUGCAUGAUGAUCCCUUGGCAGCUUAAACGCGAUUGGAAACAAUCGCGAA was tested on MS2 coat protein; the reported apparent Kd is 27.6

Data credit: the EternaBench riboswitch data
